test: Solubility in FaSSIF; settings: 23 °C, pH 6.5, fassif, thermodynamic from solid
Quantity measured: solubility at 2 h (µg/mL)
All answers are understood in µg/mL, so give the number only.

Example entries begin here.
Molecule	solubility at 2 h (µg/mL)
COC(=O)N[C@H](C(=O)N[C@@H](Cc1ccc(C#Cc2cnc(N3CC4CCC(C3)N4C3COC3)nc2)cc1)[C@H](CN(Cc1c(F)cc(-c2ccn(C(F)F)n2)cc1F)NC(=O)[C@@H](NC(=O)OC)C(C)(C)C(F)(F)F)OC(=O)OCOC(=O)CC(C)(C)c1c(CC(=O)NCC(=O)NS(C)(=O)=O)cc(C)cc1OP(=O)(O)O)C(C)(C)C(F)(F)F [Example 22]	4720
COC(=O)N[C@H](C(=O)N[C@@H](Cc1ccc(C#Cc2cnc(N3CC4CCC(C3)N4C3COC3)nc2)cc1)[C@H](CN(Cc1c(F)cc(-c2ccn(C(F)F)n2)cc1F)NC(=O)[C@@H](NC(=O)OC)C(C)(C)C(F)(F)F)OC(=O)CC(C)(C)c1c(CC(=O)Nc2cc(C(=O)O)cc(C(=O)O)c2)cccc1OP(=O)(O)O)C(C)(C)C(F)(F)F [Example 19]	3650
COC(=O)N[C@H](C(=O)N[C@@H](Cc1ccc(C#Cc2cnc(N3CC4CCC(C3)N4C3COC3)nc2)cc1)[C@H](CN(Cc1c(F)cc(-c2ccn(C(F)F)n2)cc1F)NC(=O)[C@@H](NC(=O)OC)C(C)(C)C(F)(F)F)OC(=O)CC(C)(C)c1c(CC(=O)N2CC[C@@H](O)[C@H]2C(=O)O)cc(C)cc1OP(=O)(O)O)C(C)(C)C(F)(F)F [Example 57]	4100
COC(=O)N[C@H](C(=O)N[C@@H](Cc1ccc(C#Cc2cnc(N3CC4CCC(C3)N4C3COC3)nc2)cc1)[C@H](CN(Cc1c(F)cc(-c2ccn(C(F)F)n2)cc1F)NC(=O)[C@@H](NC(=O)OC)C(C)(C)C(F)(F)F)OC(=O)CC(C)(C)c1c(CC(=O)NC(CCP(=O)(O)O)C(=O)O)cc(C)cc1OP(=O)(O)O)C(C)(C)C(F)(F)F (stereo partly drawn) [Example 35]	3560
COC(=O)N[C@H](C(=O)N[C@@H](Cc1ccc(C#Cc2cnc(N3CC4CCC(C3)N4C3COC3)nc2)cc1)[C@H](CN(Cc1c(F)cc(-c2ccn(C(F)F)n2)cc1F)NC(=O)[C@@H](NC(=O)OC)C(C)(C)C(F)(F)F)OC(=O)CC(C)(C)c1c(CC(=O)Nc2cc(C#N)cc(C(=O)O)c2)cc(C)cc1OP(=O)(O)O)C(C)(C)C(F)(F)F [Example 63]	495

Looking up COC(=O)N[C@H](C(=O)N[C@@H](Cc1ccc(C#Cc2cnc(N3CC4CCC(C3)N4C3COC3)nc2)cc1)[C@H](CN(Cc1c(F)cc(-c2ccn(C(F)F)n2)cc1F)NC(=O)[C@@H](NC(=O)OC)C(C)(C)C(F)(F)F)OC(=O)CC(C)(C)c1c(CC(=O)NCC(=O)O)cccc1OP(=O)(O)O)C(C)(C)C(F)(F)F [Example 7] , I see its solubility at 2 h listed as 5490

Per the records, this molecule ( COC(=O)N[C@H](C(=O)N[C@@H](Cc1ccc(C#Cc2cnc(N3CC4CCC(C3)N4C3COC3)nc2)cc1)[C@H](CN(Cc1c(F)cc(-c2ccn(C(F)F)n2)cc1F)NC(=O)[C@@H](NC(=O)OC)C(C)(C)C(F)(F)F)OC(=O)CC(C)(C)c1c(CC(=O)N2CCC(C(=O)O)CC2C(=O)O)cc(C)cc1OP(=O)(O)O)C(C)(C)C(F)(F)F (stereo partly drawn) [Example 113] ) has solubility at 2 h equal to 4140

# molecule CC[C@H](C)[C@H](NC(=O)Cc1cc(C)cc(OP(=O)(O)O)c1C(C)(C)CC(=O)O[C@@H](CN(Cc1c(F)cc(-c2ccn(C(F)F)n2)cc1F)NC(=O)[C@@H](NC(=O)OC)C(C)(C)C(F)(F)F)[C@H](Cc1ccc(C#Cc2cnc(N3CC4CCC(C3)N4C3COC3)nc2)cc1)NC(=O)[C@@H](NC(=O)OC)C(C)(C)C(F)(F)F)C(=O)O [Example 96] ; its solubility at 2 h = 1840
